Quick reference: inhibition of the listed items.
- Procedure Details: inhibitors of PAF-induced NFkB signaling in CF airway cells, dose response, cell-based, uHTS hits, panel, cytotoxicity readout (AID 624344)
- Run Conditions: CF bronchial epithelial cells, PAF-induced NFkB reporter inhibition, with PAF, run 1; at 79 µM (top of the series) unless noted
Number in %, nothing else.

- Compound: "Cc1cc(N2CCOCC2)c2c(N)c(Br)cc(C)c2n1"
  Parameter: "inhibition"
  Endpoint Value: 118
- Compound: "COc1ccc(CNc2ncnc3ccccc23)cc1"
  Parameter: "inhibition"
  Endpoint Value: 112
- Compound: "O=C(c1ccccc1)C1OC1C(=O)c1ccccc1 (stereo not drawn)"
  Parameter: "inhibition"
  Endpoint Value: 101
- Compound: "O=C(Nc1cccc(Cl)c1)Nc1cc(S(=O)(=O)N2CCCCC2)ccc1Cl"
  Parameter: "inhibition"
  Endpoint Value: 117
- Compound: "O=C(c1nnsc1S(=O)c1ccc(Cl)cc1)N1CCOCC1 (stereo not drawn)"
  Parameter: "inhibition"
  Endpoint Value: 95.6
- Compound: "ON=C1c2ccccc2-c2ccccc21"
  Parameter: "inhibition"
  Endpoint Value: 95.8
- Compound: "COc1cc2oc(=O)cc(-c3ccc(-c4ccc(N(C)C)cc4)cc3)c2c(OC)c1OC"
  Parameter: "inhibition"
  Endpoint Value: 54.9
- Compound: "Cc1nc(N)c(C#N)c(-c2cccnc2)c1-c1ccccc1"
  Parameter: "inhibition"
  Endpoint Value: 93.9
- Compound: "CCOC(=O)COc1ccc2ccccc2c1/C=C/[N+](=O)[O-]"
  Parameter: "inhibition"
  Endpoint Value: 100
- Compound: "COc1cc(NC(=O)Cn2ncc(Cl)c(Cl)c2=O)c(C)cc1[N+](=O)[O-]"
  Parameter: "inhibition"
  Endpoint Value: 97.1

Task item: Which inhibition reading was recorded for the compound `Cc1ccc(C(=O)c2cncc(Br)c2)cc1` ?
Reply: 86.5

Task item: Which inhibition reading was recorded for the compound `Brc1ccc2ncnc(NCc3ccco3)c2c1` ?
Reply: 109

Task item: Which inhibition reading was recorded for the compound `COc1ccc(-c2cc(-c3nc4ccccn4c3NCc3ccccc3)ccc2OC)cc1` ?
Reply: 105

###

Quick reference: inhibition of the listed items.
- System Tested: Sentrin-specific protease 8 (Homo sapiens)
- Procedure Details: SENP8 protease inhibitors, retest, confirmation, biochemical, luminescence, single concentration (AID 488912)
- Run Conditions: Recombinant SENP8, Z-RLRGG-aminoluciferin luminescence, 60 min; at 12.5 µM; stronger effect = higher value
Some of the results follow.
Number in %, nothing else.

Recorded results for 5 compounds are shown here.
- Smiles Repr: "c1c2c(cc3sc(N4CCCCC4)nc13)OCCO2"
  Value Units: "%"
  inhibition: 97
- Smiles Repr: "O=c1oc2cc(O)ccc2cc1-c1ccc(F)cc1"
  Value Units: "%"
  inhibition: 98.4
- Smiles Repr: "O=C(Nc1cccc([N+](=O)[O-])c1)c1ccc2c(c1)OCO2"
  Value Units: "%"
  inhibition: 29.3
- Smiles Repr: "N/C(=N\\OC(=O)CCC1CCCCC1)c1ccccn1"
  Value Units: "%"
  inhibition: 88.5
- Smiles Repr: "O=C(c1ccc(F)cc1)n1c(=S)nc2ccccn21"
  Value Units: "%"
  inhibition: 16.3

Task item: Which inhibition reading was recorded for the compound `O=C(Nc1nnc(SCc2ccccc2)s1)c1ccco1` ?
Reply: 6.7

Task item: Which inhibition reading was recorded for the compound `COc1ccc(Nc2nc(-c3ccccc3)cs2)cc1` ?
Reply: 49.3

Task item: Which inhibition reading was recorded for the compound `Cc1cc(NC(=O)c2ccc(F)cc2)ccc1NC(=O)c1ccco1` ?
Reply: 78.9

Task item: Which inhibition reading was recorded for the compound `CCOC(=O)c1ccc(Nc2cc3ccccc3c(=O)[nH]2)cc1` ?
Reply: 28.7

Task item: Which inhibition reading was recorded for the compound `COc1ccc(-c2cn3ccsc3n2)cc1` ?
Reply: 55.5

Task item: Which inhibition reading was recorded for the compound `c1ccc(CN=C2Nc3ccccc3CS2)nc1` ?
Reply: 48.6

Where do these numbers come from? They come from PubChem BioAssay.
